# ASSAY_TARGET: Gal(b1-4)GlcNAc(b1-3)GalNAc
# EXPERIMENT_NOTES: glycan array binding signal (z-score within array); higher = stronger binding
# TEST_SETTINGS: glycan notation: IUPAC condensed, linker removed
The full list was thinned out, with the strongest signals kept by preference.
READOUT_KIND: glycan array binding signal (z-score)
I'd appreciate a reply containing only the number, no unit.

Ask: Sample RobpsCRA (Robinia pseudoacacia) (protein) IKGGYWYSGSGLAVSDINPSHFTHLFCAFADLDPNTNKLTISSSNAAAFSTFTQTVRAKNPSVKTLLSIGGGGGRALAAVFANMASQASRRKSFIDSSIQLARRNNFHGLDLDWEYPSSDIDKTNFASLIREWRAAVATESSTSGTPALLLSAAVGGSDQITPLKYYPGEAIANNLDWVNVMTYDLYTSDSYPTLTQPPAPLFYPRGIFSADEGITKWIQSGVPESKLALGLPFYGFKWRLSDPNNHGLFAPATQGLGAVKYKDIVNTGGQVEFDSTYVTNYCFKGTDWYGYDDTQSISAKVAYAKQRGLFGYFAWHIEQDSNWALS — what was its glycan array binding signal (z-score)?
Reply: 0.32
